The measured values listed here are drawn from the supplement of paper PMC9588786.

Tested on: HT-1080;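 note: viability read as CCK-8 absorbance at 450 nm in cells co-exposed to the GPX4 inhibitor RSL3, relative to a 0.01% DMSO vehicle control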
Test: relative cell viability with RSL3 co-treatment (fraction of control); higher = stronger protection from RSL3-induced ferroptosis (higher viability)
Conditions: 10 µM
Counter-ions that a name gives are not always drawn.
Param label: returns met when relative cell viability < 0.7, returns not met otherwise, including exact equality.

compound=CC(C)c1cnn2c(NCc3ccccc3)cc(NCCCCCCN)nc12 group=met
compound="O=C(Nc1ccc(-c2ccnc(Nc3ccc(N4CCOCC4)cc3)n2)cc1)C1CCCN1 (centres undefined)" group=met
compound=Cc1nc(Nc2n[nH]c3c2CN(C(=O)N[C@H](CN(C)C)c2ccccc2)C3(C)C)c2sccc2n1 group=met
compound="CN1CCN(c2ccc(C(=O)Nc3n[nH]c4ccc(Cc5cc(F)cc(F)c5)cc34)c(NC3CCOCC3)c2)CC1 [Entrectinib (RXDX-101)]" group=met
compound=CNc1nc(-c2ccc3c(N)n[nH]c3c2)cc(N2C[C@@H](C(=O)NC3CCCCC3)CC[C@H]2C)n1 group=met
compound="CCn1c(N)c(C(=O)NC)c(=O)c2ccc(C#CC(C)(O)COC)nc21 (centres undefined)" group="not met"
compound=COC(=O)Nc1ccc(-c2nc(N3CCOCC3)c3cnn(C4CCN(C(=O)OC)CC4)c3n2)cc1 group=met
compound=CN1CCC(COc2cnc(-c3cccc(Cn4nc(-c5cccc(C#N)c5)ccc4=O)c3)nc2)CC1 group=met
compound=Cc1ccc(C(=O)Nc2ccc(CN3CCN(C)CC3)c(C(F)(F)F)c2)cc1C#Cc1cnc2cccnn12 group=met
compound=C[C@@H](Oc1cc(-n2cnc3ccc(CN4CCN(C)CC4)cc32)sc1C(N)=O)c1ccccc1C(F)(F)F group=met
compound=O=C(Nc1cccc(Nc2ncc(Br)c(NCCc3cnc[nH]3)n2)c1)N1CCCC1 group="not met"
compound=COc1ccc(-c2nc(N3CCOCC3)c3sc(CN(C)c4ncc(C(=O)NO)cn4)cc3n2)cn1 group=met
compound=C#Cc1cccc(Nc2ncnc3cc(OC)c(OCCCCCCC(=O)NO)cc23)c1 group="not met"
compound=COc1ncc(-c2cc(-c3ncc(CN4C[C@@H](C)O[C@@H](C)C4)o3)c3cn[nH]c3c2)cc1NS(C)(=O)=O group=met
compound=O=C(c1ccc(F)c(F)c1Nc1ccc(I)cc1F)N1CC(O)([C@@H]2CCCCN2)C1 group="not met"
compound=Fc1cc(-c2cccc3ncc(-c4cnn(C5CCNCC5)c4)nc23)cc(F)c1CN1CCOCC1 group="not met"
compound=Cc1cc(Nc2ncc(Cl)c(Nc3ccccc3S(=O)(=O)C(C)C)n2)c(OC(C)C)cc1C1CCNCC1 group=met
compound=CNC(=O)c1cc(Oc2ccc(NC(=O)Nc3cc(C(C)(C)C)nn3-c3ccc4ncccc4c3)c(F)c2)ccn1 group=met
compound=O=c1cc(-c2cccc3c2Sc2ccccc2S3)oc(N2CCOCC2)c1 group=met
compound=C=CC(=O)Nc1cccc(Nc2nc(Nc3ccc(OCCOC)cc3)ncc2F)c1 group=met
compound=Cc1cc(F)c(Nc2ncnc3cc(OCc4ccccc4)ccc23)cc1O group="not met"
compound=Cc1ccc(NC(=O)c2ccc(CN3CCN(C)CC3)cc2)cc1Nc1nc(-c2cccnc2)cs1 group=met
compound=COc1cc(-c2cc(-c3ccc(N4CCNCC4)cc3)cnc2C)cc(OC)c1OC group="not met"
compound="N=C(N)NC(=N)NCCc1ccccc1 [Phenformin HCl]" group="not met"
compound=O=C(c1cccc(Cl)c1F)N1CCN(Cc2cccc(Nc3nccs3)n2)CC1 group=met
compound=O=C(NCc1ccccc1)c1csc(Nc2ccncn2)n1 group=met
compound=Cc1c(NC(=O)OC[C@@H]2COCCN2)cn2ncnc(Nc3ccc4c(cnn4Cc4cccc(F)c4)c3)c12 group="not met"
compound=Cc1nc(N)sc1-c1ccnc(Nc2ccc(N3CCOCC3)cc2)n1 group=met
compound=CO[C@H]1C[C@@H]2CC[C@@H](C)[C@@](O)(O2)C(=O)C(=O)N2CCCC[C@H]2C(=O)O[C@H]([C@H](C)C[C@@H]2CC[C@@H](OP(C)(C)=O)[C@H](OC)C2)CC(=O)[C@H](C)/C=C(\C)[C@@H](O)[C@@H](OC)C(=O)[C@H](C)C[C@H](C)/C=C/C=C/C=C/1C group="not met"
compound=CC(C)(O)CNc1ncc(-c2ccnc(Nc3ccnc(Cl)c3)n2)c(CC2CC2)n1 group=met
compound=CCn1c(=O)c(-c2ccc(-c3cncs3)cc2Cl)cc2cnc(Nc3ccc(N4CCN(C)CC4)cc3)nc21 group="not met"
compound="Cc1ccc(C(=O)Nc2ccc(CN3CCN(C)CC3)c(C(F)(F)F)c2)cc1C#Cc1cnc2[nH]ncc2c1 [GZD824 Dimesylate]" group=met
